Cited source: patent US20240009191A1

test target: AT1R-CXCR2 heteromer (Homo sapiens, UniProt P25025+P30556)
test method notes: BRET trafficking of CXCR2/Rluc8 (Venus/Kras, Rab5, Rab8) with HA-AT1R, pre-treatment with vehicle or antagonists/inverse agonists
Type: cell-based
setup conditions: 100 nM AngII only, 50 minutes after pre-treatment (10 μM); FIG. 16B, 16D
measured parameter: effect of AngII on CXCR2/Rluc8-Venus/Kras BRET

{"molecule": "O=C(Nc1ccc([N+](=O)[O-])cc1O)Nc1ccccc1Br [SB225002]", "meas value": "did not alter"}
{"molecule": "CC[C@@H](Nc1c(Nc2cccc(C(=O)N(C)C)c2O)c(=O)c1=O)c1ccc(C)o1 [navarixin]", "meas value": "did not alter"}
{"molecule": "CCCCC(=O)N(Cc1ccc(-c2ccccc2-c2nnn[nH]2)cc1)[C@H](C(=O)O)C(C)C [valsartan]", "meas value": "completely inhibited"}
{"molecule": "CCOc1nc2cccc(C(=O)O)c2n1Cc1ccc(-c2ccccc2-c2nc(=O)o[nH]2)cc1 [azilsartan]", "meas value": "completely inhibited"}
{"molecule": "CCCCC1=NC2(CCCC2)C(=O)N1Cc1ccc(-c2ccccc2-c2nnn[nH]2)cc1 [irbesartan]", "meas value": "completely inhibited"}

---

test target: AT1R-CXCR2 heteromer (Homo sapiens, UniProt P25025+P30556)
Sequence (P25025 1-360): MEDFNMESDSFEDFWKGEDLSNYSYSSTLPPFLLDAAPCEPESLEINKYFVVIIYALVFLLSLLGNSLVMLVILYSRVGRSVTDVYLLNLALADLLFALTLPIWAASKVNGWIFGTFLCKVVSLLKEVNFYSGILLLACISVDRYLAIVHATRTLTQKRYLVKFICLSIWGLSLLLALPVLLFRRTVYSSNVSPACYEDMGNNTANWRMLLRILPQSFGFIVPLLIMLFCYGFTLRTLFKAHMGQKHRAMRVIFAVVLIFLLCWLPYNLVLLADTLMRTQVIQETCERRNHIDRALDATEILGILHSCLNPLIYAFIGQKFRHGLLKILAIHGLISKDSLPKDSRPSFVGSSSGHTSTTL
Sequence (P30556 1-359): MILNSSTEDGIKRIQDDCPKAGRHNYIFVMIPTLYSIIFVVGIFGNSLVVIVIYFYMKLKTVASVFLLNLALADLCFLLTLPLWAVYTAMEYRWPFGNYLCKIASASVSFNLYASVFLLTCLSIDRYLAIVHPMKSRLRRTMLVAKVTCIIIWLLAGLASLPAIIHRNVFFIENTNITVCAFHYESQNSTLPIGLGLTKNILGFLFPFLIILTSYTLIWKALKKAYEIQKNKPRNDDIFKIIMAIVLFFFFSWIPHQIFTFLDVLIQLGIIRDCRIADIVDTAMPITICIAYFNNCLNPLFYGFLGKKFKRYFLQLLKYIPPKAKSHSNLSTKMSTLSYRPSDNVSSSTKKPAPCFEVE
test method notes: BRET trafficking of CXCR2/Rluc8 (Venus/Kras, Rab5, Rab8) with HA-AT1R, pre-treatment with vehicle or antagonists/inverse agonists
Assay type: cell-based
setup conditions: 10 nM CXCL8 and 100 nM AngII, 50 minutes after pre-treatment (10 μM); FIG. 18C, 18E-18H
measured parameter: effect of both CXCL8 and AngII combined on CXCR2/Rluc8-Venus/Rab8 BRET

{"molecule": "CCCCC(=O)N(Cc1ccc(-c2ccccc2-c2nnn[nH]2)cc1)[C@H](C(=O)O)C(C)C [valsartan]", "meas value": "completely inhibited"}
{"molecule": "CCOc1nc2cccc(C(=O)O)c2n1Cc1ccc(-c2ccccc2-c2nc(=O)o[nH]2)cc1 [azilsartan]", "meas value": "completely inhibited"}
{"molecule": "CCCCC1=NC2(CCCC2)C(=O)N1Cc1ccc(-c2ccccc2-c2nnn[nH]2)cc1 [irbesartan]", "meas value": "completely inhibited"}
